Target: angiotensin II AT1 receptor
Test: Assay A: Angiotensin II binding activity (125I-AII displacement, rat uterine membrane preparation)
// boundary case: IC50 equal to 0.03 µM maps to label 0; strictly smaller maps to label 1

[
  {
    "entry-smiles": "CCCCc1nc(-c2ccccc2Cl)nn1Cc1ccc(-c2ccccc2-c2nnn[nH]2)nc1",
    "assigned-category": "label 1"
  },
  {
    "entry-smiles": "CCCCc1cn([C@H]2[C@H](C)CCC[C@@H]2C)c(=O)n1Cc1ccc(-c2ccccc2-c2nnn[nH]2)nc1",
    "assigned-category": "label 1"
  },
  {
    "entry-smiles": "CCCCc1cn(CC(CC)CC)c(=O)n1Cc1ccc(-c2ccccc2-c2nnn[nH]2)nc1",
    "assigned-category": "label 1"
  },
  {
    "entry-smiles": "CCCCc1nc(CC(CC)CC)nn1Cc1ccc(-c2ccccc2-c2nnn[nH]2)nc1",
    "assigned-category": "label 1"
  },
  {
    "entry-smiles": "CCCCc1nc(CC)n(Cc2ccc(-c3ccccc3C(=O)O)cc2)n1",
    "assigned-category": "label 0"
  },
  {
    "entry-smiles": "CCCCc1nc2c(Cl)nnc(Cl)c2n1Cc1ccc(-c2ccccc2-c2nnn[nH]2)cc1",
    "assigned-category": "label 0"
  },
  {
    "entry-smiles": "CCCCn1nc(C(OC(C)C)OC(C)C)nc1Cc1ccc(-c2ccccc2-c2nnn[nH]2)nc1",
    "assigned-category": "label 0"
  },
  {
    "entry-smiles": "CCCCc1cn(-c2ccccc2C)c(=O)n1Cc1ccc(-c2ccccc2-c2nnn[nH]2)nc1",
    "assigned-category": "label 1"
  }
]

* * *

The reader will find reported Kb values listed item by item below.
Tested on: rabbit aortic rings
Experiment: Assay B: In vitro vascular smooth muscle response for AII (antagonist activity, pA2)
Format: cell-based
Details: Oryctolagus cuniculus, in vitro vascular smooth muscle response; two values per cell separated by / are separate determinations; read-out: Assay B pA2 (converted)
property-measured: Kb (nM)

[
  {
    "entry-smiles": "CCCCc1nc(Cc2ccc(-c3ccccc3C(=O)O)cc2)nn1CCCC",
    "property-measured": "Kb",
    "readout-units": "nM",
    "observed-measurement": 11000
  },
  {
    "entry-smiles": "CCCCc1nc(CCCO)n(Cc2ccc(-c3ccccc3-c3nnn[nH]3)cc2)n1",
    "property-measured": "Kb",
    "readout-units": "nM",
    "observed-measurement": 158
  },
  {
    "entry-smiles": "CCCCc1nn(Cc2ccc3ccccc3c2)c(=O)n1Cc1ccc(-c2ccccc2-c2nn[nH]n2)cc1",
    "property-measured": "Kb",
    "readout-units": "nM",
    "observed-measurement": 316
  },
  {
    "entry-smiles": "CCCCn1nc(C(OCC)OCC)nc1Cc1ccc(-c2ccccc2-c2nnn[nH]2)nc1",
    "property-measured": "Kb",
    "readout-units": "nM",
    "observed-measurement": 20.4
  },
  {
    "entry-smiles": "CCCCc1nc(-c2ccccc2)n(Cc2ccc(-c3ccccc3-c3nnn[nH]3)cc2)n1",
    "property-measured": "Kb",
    "readout-units": "nM",
    "observed-measurement": 251
  },
  {
    "entry-smiles": "CCCCn1nc(C(=O)NC)nc1Cc1ccc(-c2ccccc2-c2nnn[nH]2)nc1",
    "property-measured": "Kb",
    "readout-units": "nM",
    "observed-measurement": 70.8
  },
  {
    "entry-smiles": "CCCCc1nc2cnncc2n1Cc1ccc(-c2ccccc2C(=O)O)cc1",
    "property-measured": "Kb",
    "readout-units": "nM",
    "observed-measurement": 5010
  },
  {
    "entry-smiles": "CCCCc1nc(C(OC)OC)nn1Cc1ccc(-c2ccccc2-c2nnn[nH]2)cc1",
    "property-measured": "Kb",
    "readout-units": "nM",
    "observed-measurement": 27.5
  }
]

* * *

Listed compounds paired with reported pIC50
Target: angiotensin II AT1 receptor
Test: Assay A: Angiotensin II binding activity (125I-AII displacement, rat uterine membrane preparation)
pIC50: −log10 of the molar value.
property-measured: pIC50

[
  {
    "compound": "CCCCCCn1nc(CCCC)n(Cc2ccc(-c3ccccc3-c3nn[nH]n3)cc2)c1=O [Compound 85]",
    "property-measured": "pIC50",
    "observed-measurement": 8.06
  },
  {
    "compound": "CCCCc1nn(CCC2CCCCC2)c(=O)n1Cc1ccc(-c2ccccc2-c2nn[nH]n2)cc1 [Compound 89]",
    "property-measured": "pIC50",
    "observed-measurement": 7.74
  },
  {
    "compound": "CCCCc1nc(CC(OCC)OCC)nn1Cc1ccc(-c2ccccc2-c2nnn[nH]2)cc1 [Compound 38]",
    "property-measured": "pIC50",
    "observed-measurement": 8.00
  },
  {
    "compound": "CCCCc1cn(-c2cccn2CC)c(=O)n1Cc1ccc(-c2ccccc2-c2nnn[nH]2)nc1 [Compound 238]",
    "property-measured": "pIC50",
    "observed-measurement": 8.77
  },
  {
    "compound": "CCCCc1nn(CC(=O)c2cc(OC)ccc2OC)c(=O)n1Cc1ccc(-c2ccccc2-c2nn[nH]n2)cc1 [Compound 96]",
    "property-measured": "pIC50",
    "observed-measurement": 7.68
  },
  {
    "compound": "CCCCc1nc(CC23CC4CC(CC(C4)C2)C3)nn1Cc1ccc(-c2ccccc2-c2nnn[nH]2)cc1 [Compound 62]",
    "property-measured": "pIC50",
    "observed-measurement": 7.59
  },
  {
    "compound": "CCCCc1nc(CCCC)n(Cc2ccc(-n3c(Br)ccc3-c3nnn[nH]3)cc2)n1 [Compound 141]",
    "property-measured": "pIC50",
    "observed-measurement": 9.96
  },
  {
    "compound": "CCCCc1nc(C(=O)N(C)C(C)(C)C)n(Cc2ccc(-c3ccccc3-c3nnn[nH]3)nc2)n1 [Compound 256]",
    "property-measured": "pIC50",
    "observed-measurement": 8.39
  },
  {
    "compound": "CCCCc1nc(C(F)(F)Cc2ccccc2)nn1Cc1ccc(-c2ccccc2-c2nnn[nH]2)cc1 [Compound 51]",
    "property-measured": "pIC50",
    "observed-measurement": 8.06
  },
  {
    "compound": "CCCCc1nc(-c2ccccc2)n(Cc2ccc(-c3ccccc3-c3nnn[nH]3)cc2)n1 [Compound 22]",
    "property-measured": "pIC50",
    "observed-measurement": 6.34
  },
  {
    "compound": "CCCn1nc(C(F)(F)CC)nc1Cc1ccc(-c2ccccc2-c2nnn[nH]2)nc1 [Compound 167]",
    "property-measured": "pIC50",
    "observed-measurement": 6.43
  },
  {
    "compound": "CCCCc1nn(CCCCC(=O)OC)c(=O)n1Cc1ccc(-c2ccccc2-c2nn[nH]n2)cc1 [Compound 100]",
    "property-measured": "pIC50",
    "observed-measurement": 8.36
  },
  {
    "compound": "CCCCn1nc(C(F)(F)CCC)nc1Cc1ccc(-c2ccccc2-c2nnn[nH]2)nc1 [Compound 170]",
    "property-measured": "pIC50",
    "observed-measurement": 7.59
  },
  {
    "compound": "CCCCc1nn(Cc2ccc3ccccc3c2)c(=O)n1Cc1ccc(-c2ccccc2-c2nn[nH]n2)cc1 [Compound 99]",
    "property-measured": "pIC50",
    "observed-measurement": 6.55
  },
  {
    "compound": "CCCCc1nn(C(Cc2ccccc2)C(=O)c2ccccc2)c(=O)n1Cc1ccc(-c2ccccc2-c2nn[nH]n2)cc1 (stereo not shown) [Compound 94]",
    "property-measured": "pIC50",
    "observed-measurement": 5.24
  },
  {
    "compound": "CCCCn1cc(C2CCCCC2)n(Cc2ccc(-c3ccccc3-c3nnn[nH]3)nc2)c1=O [Compound 191]",
    "property-measured": "pIC50",
    "observed-measurement": 7.09
  }
]

* * *

Tested on: pressor response to AII
Test: Assay C: In vivo intragastric pressor assay response for AII antagonists
Design: species or system rat
Conditions: Rattus norvegicus, dose 3 mg/kg, intragastric, or intraduodenal for examples listed
Readings of inhibition at 3 mg/kg for the listed compounds
property-measured: inhibition at 3 mg/kg (%)

[
  {
    "entry-smiles": "CCCCc1cn(-c2c(C)cccc2Cl)c(=O)n1Cc1ccc(-c2ccccc2-c2nnn[nH]2)nc1",
    "observed-measurement": 75
  },
  {
    "entry-smiles": "CCCn1nc(C(F)(F)CCC)nc1Cc1ccc(-c2ccccc2-c2nnn[nH]2)nc1",
    "observed-measurement": 15
  },
  {
    "entry-smiles": "CCCCc1cn(-c2ccccc2C(C)C)c(=O)n1Cc1ccc(-c2ccccc2-c2nnn[nH]2)cc1",
    "observed-measurement": 70
  },
  {
    "entry-smiles": "CCCCc1nc(Cl)c(CO)n1Cc1ccc(-n2cccc2C(=O)O)cc1",
    "observed-measurement": 92
  },
  {
    "entry-smiles": "CCCCc1cn(-c2c(F)cccc2F)c(=O)n1Cc1ccc(-c2ccccc2-c2nnn[nH]2)nc1",
    "observed-measurement": 75
  },
  {
    "entry-smiles": "CCCCc1nc(C(F)(F)CCC)nn1Cc1ccc(-c2ccccc2-c2nnn[nH]2)nc1",
    "observed-measurement": 20
  },
  {
    "entry-smiles": "CCCCc1cn([C@H]2[C@H](C)CCC[C@@H]2C)c(=O)n1Cc1ccc(-c2ccccc2-c2nnn[nH]2)nc1",
    "observed-measurement": 70
  },
  {
    "entry-smiles": "CCCCn1nc(C2OCC(C)(C)CO2)nc1Cc1ccc(-c2ccccc2-c2nnn[nH]2)nc1",
    "observed-measurement": 20
  }
]

Where do these numbers come from? They come from patent US6653306B1.
